Target: cathepsin S (Homo sapiens)
Sequence (P25774 115-331, species assumed): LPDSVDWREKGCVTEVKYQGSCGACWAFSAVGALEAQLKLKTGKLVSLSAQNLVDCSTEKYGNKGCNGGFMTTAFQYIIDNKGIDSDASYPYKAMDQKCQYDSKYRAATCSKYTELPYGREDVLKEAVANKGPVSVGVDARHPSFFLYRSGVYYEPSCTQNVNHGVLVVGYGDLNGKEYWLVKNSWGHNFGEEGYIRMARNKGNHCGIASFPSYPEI
Experiment: Inhibitory activity assay against cathepsin S (enzyme assay)
Format: biochemical
Conditions: Z-Phe-Arg-AMC 70 μM, enzyme 3 nM, pH 6.5, 45 minutes
Description: In order to measure the enzyme activity of cathepsin S, a buffer solution (pH 6.5) consisting of 50 mM MES, 2.5 mM DTT, 1.0 mM EDTA, 0.001% bovine serum albumin (BSA), and 10% DMSO was prepared. […] After reacting the mixture of substrate, test material, and enzyme for 45 minutes, the enzyme activity was measured with the EnVision (Perkin Elmer) microplate reader at an absorption wavelength of 340 nm and an emission wavelength of 460 nm. […]
IC50: recorded values
Measured Metric: IC50

Molecule	Test Value
N#Cc1nccc(C2(NC(=O)Nc3ccc(N4CCN(C5CC5)CC4)cc3)CCCCC2)n1 [Example 144]	> 10000 nM
N#Cc1nccc(C2(NC(=O)Nc3ccccc3)CCCCC2)n1 [Example 86]	7110 nM
CS(=O)(=O)Nc1ccc(-c2ccc(NC(=O)NC3(c4ccnc(C#N)n4)CCCCC3)cc2C(F)(F)F)cc1 [Example 180]	> 10000 nM
N#Cc1nccc(C2(NC(=O)Nc3ccc(-c4ccc(S(=O)(=O)C(F)(F)F)cc4)c(C(F)(F)F)c3)CCCCC2)n1 [Example 177]	6140 nM
N#Cc1nccc(C2(NC(=O)Nc3cc(C(F)(F)F)ccc3C(=O)O)CCCCC2)n1 [Example 98]	4480 nM
N#Cc1nccc(C2(NC(=O)OCc3ccc(Br)cc3)CCCC2)n1 [Example 2]	> 10000 nM
N#Cc1nccc(C2(NC(=O)Nc3ccc(C#Cc4ccc(CO)cc4)cc3)CCCCC2)n1 [Example 183]	> 10000 nM
CC(NC(=O)NC1(c2ccnc(C#N)n2)CCCC1)c1ccccc1 (centres unmarked) [Example 51]	> 10000 nM
N#Cc1nccc(C2(NC(=O)Nc3ccc(Br)cc3F)CCCCC2)n1 [Example 134]	> 10000 nM
N#Cc1nccc(C2(NC(=O)Nc3ccc(-c4ccc(S(N)(=O)=O)cc4)cc3)CCCCC2)n1 [Example 173]	> 10000 nM
COc1ccc(COC(=O)NC2(c3ccnc(C#N)n3)CCCCC2)cc1 [Example 25]	> 10000 nM
N#Cc1nccc(C2(NC(=O)OCc3cccc(Cl)c3)CCCCC2)n1 [Example 16]	> 10000 nM
N#Cc1nccc(C2(NC(=O)Nc3ccc(-c4ccccc4C(F)(F)F)cc3)CCCCC2)n1 [Example 172]	8020 nM
Cc1cccc(NC(=O)NC2(c3ccnc(C#N)n3)CCCC2)c1 [Example 38]	> 10000 nM
N#Cc1nccc(C2(NC(=O)Nc3ccc(-c4ccccc4C(F)(F)F)c(C(F)(F)F)c3)CCCCC2)n1 [Example 176]	5840 nM
N#Cc1nccc(C2(NC(=O)NCc3ccccc3)CCCC2)n1 [Example 42]	> 10000 nM
Cc1ccccc1CNC(=O)NC1(c2ccnc(C#N)n2)CCCC1 [Example 46]	> 10000 nM

----------
IC50: recorded values
target: cathepsin L (Homo sapiens, UniProt P07711); assay: Inhibitory activity assay against cathepsin L (enzyme assay); assay type: biochemical; settings: Z-Phe-Arg-AMC 2 μM, enzyme 3 nM, pH 5.5, 30 minutes
Sequence (P07711 114-333, species assumed): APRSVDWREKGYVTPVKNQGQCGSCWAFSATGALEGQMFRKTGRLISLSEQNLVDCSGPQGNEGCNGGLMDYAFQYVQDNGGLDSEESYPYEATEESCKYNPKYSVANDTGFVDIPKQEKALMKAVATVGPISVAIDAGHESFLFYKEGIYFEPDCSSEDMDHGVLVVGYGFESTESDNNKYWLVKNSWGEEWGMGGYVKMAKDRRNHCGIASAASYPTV
Measured Metric: IC50

Smiles Structure	Test Value
N#Cc1nccc(C2(NC(=O)Nc3ccc(C(F)(F)F)cc3)CCCCC2)n1	> 10000 nM
N#Cc1nccc(C2(NC(=O)Nc3ccc(-c4ccc(CC(=O)O)cc4)cc3)CCCCC2)n1	> 10000 nM
N#Cc1nccc(C2(NC(=O)Nc3ccc(-c4ccc(O)cc4)cc3)CCCCC2)n1	> 10000 nM
CS(=O)(=O)c1ccc(-c2ccc(COC(=O)NC3(c4ccnc(C#N)n4)CCCC3)cc2)cc1	> 10000 nM
N#Cc1nccc(C2(NC(=O)Nc3ccc(C#CCCC(=O)O)cc3)CCCCC2)n1	> 10000 nM
N#Cc1nccc(C2(NC(=O)Nc3ccc(Cc4ccccc4)cc3)CCCCC2)n1	> 10000 nM
N#Cc1nccc(C2(NC(=O)OCc3cccc(F)c3)CCCC2)n1	3550 nM
N#Cc1nccc(C2(NC(=O)OCc3ccc(Cl)cc3)CCCCC2)n1	> 10000 nM
N#Cc1nccc(C2(NC(=O)Nc3cccc(-c4ccccc4)c3)CCCCC2)n1	> 10000 nM
N#Cc1nccc(C2(NC(=O)Nc3cccc4ccccc34)CCCC2)n1	> 10000 nM
N#Cc1nccc(C2(NC(=O)OCc3ccccc3C(F)(F)F)CCCCC2)n1	2010 nM
Cc1ccc(C)c(NC(=O)NC2(c3ccnc(C#N)n3)CCCC2)c1	2670 nM
N#Cc1nccc(C2(NC(=O)OCc3cccc(Cl)c3)CCCCC2)n1	4610 nM
N#Cc1nccc(C2(NC(=O)Nc3ccc4c(c3)CCC4)CCCC2)n1	> 10000 nM
N#Cc1nccc(C2(NC(=O)Nc3ccc(Oc4ccccc4)cc3)CCCC2)n1	> 10000 nM
N#Cc1nccc(C2(NC(=O)Nc3ccc4ccccc4c3)CCCC2)n1	> 10000 nM
CS(=O)(=O)c1ccc(-c2cccc(COC(=O)NC3(c4ccnc(C#N)n4)CCCC3)c2)cc1	> 10000 nM
N#Cc1nccc(C2(NC(=O)Nc3ccc(-c4ccc(C(=O)NCCc5c[nH]cn5)cc4)c(C(F)(F)F)c3)CCCCC2)n1	1190 nM
N#Cc1nccc(C2(NC(=O)Nc3cc(F)ccc3C(F)(F)F)CCCC2)n1	> 10000 nM
N#Cc1nccc(C2(NC(=O)OCc3ccc(Br)cc3)CCCCC2)n1	> 10000 nM
N#Cc1nccc(C2(NC(=O)OCc3ccc(-c4ccc(N5CCOCC5)cc4)cc3)CCCC2)n1	> 10000 nM
N#Cc1nccc(C2(NC(=O)Nc3ccc(-c4ccc(S(N)(=O)=O)cc4)cc3)CCCCC2)n1	> 10000 nM
COc1ccc(COC(=O)NC2(c3ccnc(C#N)n3)CCCCC2)cc1	> 10000 nM
N#Cc1nccc(C2(NC(=O)Nc3cc(C(F)(F)F)ccc3C(F)(F)F)CCCCC2)n1	> 10000 nM
N#Cc1nccc(C2(NC(=O)Nc3ccc(-c4ccccc4F)cc3)CCCCC2)n1	> 10000 nM
CN(C(=O)NC1(c2ccnc(C#N)n2)CCCCC1)c1ccccc1	5590 nM
CN(C(=O)NC1(c2ccnc(C#N)n2)CCCCC1)c1ccc(F)c(C(F)(F)F)c1	2980 nM
CNCCOc1ccc(-c2ccc(NC(=O)NC3(c4ccnc(C#N)n4)CCCCC3)cc2)cc1	> 10000 nM
N#Cc1nccc(C2(NC(=O)Nc3ccc(-c4ccc(C(=O)NCCn5ccnc5)cc4)cc3)CCCCC2)n1	4400 nM
N#Cc1nccc(C2(NC(=O)OCc3ccc(C(F)(F)F)cc3)CCCCC2)n1	> 10000 nM
N#Cc1nccc(C2(NC(=O)Nc3ccc(-c4ccc(C5CCN(C6CC6)CC5)cc4)c(F)c3)CCCCC2)n1	> 10000 nM
N#Cc1nccc(C2(NC(=O)Nc3ccc(-c4ccc(C(=O)NCCc5c[nH]cn5)cc4)cc3)CCCCC2)n1	2420 nM
N#Cc1nccc(C2(NC(=O)OCCc3ccccc3)CCCC2)n1	> 10000 nM
CS(=O)(=O)Nc1ccc(-c2ccc(NC(=O)NC3(c4ccnc(C#N)n4)CCCCC3)cc2)cc1	> 10000 nM

----------
molecular target: cathepsin K (Homo sapiens); assay: Inhibitory activity assay against cathepsin K (enzyme assay); type: biochemical; details: Z-Phe-Arg-AMC 10 μM, enzyme 1 nM, pH 5.5, 30 minutes
Sequence (P43235 115-329, species assumed): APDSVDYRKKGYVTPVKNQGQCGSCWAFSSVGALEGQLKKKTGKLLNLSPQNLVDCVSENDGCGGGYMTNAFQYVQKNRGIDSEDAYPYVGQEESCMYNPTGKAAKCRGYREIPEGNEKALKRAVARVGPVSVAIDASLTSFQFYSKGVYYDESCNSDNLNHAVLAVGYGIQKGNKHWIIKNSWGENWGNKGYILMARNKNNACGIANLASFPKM
Measured Metric: IC50 (nM)

Compound	Measured Metric	Result Units	Readout Qualifier	Test Value
N#Cc1nccc(C2(NC(=O)NCCc3ccc(S(N)(=O)=O)cc3)CCCC2)n1 [Example 45]	IC50	nM	=	3430
N#Cc1nccc(C2(NC(=O)Nc3cccc(-c4ccc(C(F)(F)F)cc4)c3)CCCCC2)n1 [Example 112]	IC50	nM	=	147
N#Cc1nccc(C2(NC(=O)OCc3cccc4ccccc34)CCCCC2)n1 [Example 26]	IC50	nM	=	61.7
N#Cc1nccc(C2(NC(=O)Nc3ccc(F)c(C(F)(F)F)c3)CCCCC2)n1 [Example 96]	IC50	nM	=	10.2
Cc1ccc(CNC(=O)NC2(c3ccnc(C#N)n3)CCCC2)cc1 [Example 48]	IC50	nM	=	49.6
CN(C(=O)NC1(c2ccnc(C#N)n2)CCCCC1)c1ccccc1 [Example 104]	IC50	nM	=	12.4
N#Cc1nccc(C2(NC(=O)OCc3ccc(Cl)cc3)CCCCC2)n1 [Example 23]	IC50	nM	=	19.9
Cc1ccc(C(F)(F)F)cc1NC(=O)NC1(c2ccnc(C#N)n2)CCCC1 [Example 66]	IC50	nM	=	3.4
N#Cc1nccc(C2(NC(=O)OCc3cccc(-c4ccc(N5CCOCC5)cc4)c3)CCCC2)n1 [Example 32]	IC50	nM	≥	10000
N#Cc1nccc(C2(NC(=O)Nc3ccc(-c4ccccc4F)cc3)CCCCC2)n1 [Example 124]	IC50	nM	=	6.9
CC(C)C1CCN(c2ccc(NC(=O)NC3(c4ccnc(C#N)n4)CCCCC3)cc2)CC1 [Example 145]	IC50	nM	=	76
CN1CCN(c2ccc(NC(=O)NC3(c4ccnc(C#N)n4)CCCCC3)cc2)CC1 [Example 138]	IC50	nM	=	5.8
COC(=O)Cc1ccc(-c2ccc(NC(=O)NC3(c4ccnc(C#N)n4)CCCCC3)cc2)cc1 [Example 156]	IC50	nM	=	4.3
N#Cc1nccc(C2(NC(=O)Nc3ccc(-c4ccc(O)cc4)cc3)CCCCC2)n1 [Example 115]	IC50	nM	=	9.2
Cc1ccc(C)c(NC(=O)NC2(c3ccnc(C#N)n3)CCCC2)c1 [Example 50]	IC50	nM	=	4.3
N#Cc1nccc(C2(NC(=O)OCc3ccccc3)CCCC2)n1 [Example 1]	IC50	nM	=	23
COc1cccc(NC(=O)NC2(c3ccnc(C#N)n3)CCCC2)c1 [Example 80]	IC50	nM	=	157
C#Cc1ccc(-c2ccc(NC(=O)NC3(c4ccnc(C#N)n4)CCCCC3)cc2)cc1 [Example 122]	IC50	nM	=	16.9
